Assignment: determine reported IC50 for the given compounds.
Target: SARS-CoV-2 3CLP (Severe acute respiratory syndrome coronavirus 2)
Assay: SARS-CoV-2 3CLP inhibition, FRET-based cleavage assay
Assay type: biochemical
Conditions: 80 nM SARS-CoV-2 3CLP, 100 μM substrate, 37° C., 10 min incubation, pH 7.8; read-out: 3CL Protease IC50
Numbers only, in nM.

## Task Tell me measured IC50 for "COc1cccc2[nH]c(C(=O)N[C@@H](CC(C)C)C(=O)N[C@@H](C[C@@H]3CCCNC3=O)C(=O)COC(=O)c3sc(C)nc3C(F)(F)F)cc12" please.
## Result 18

## Task Tell me measured IC50 for "COc1cccc2[nH]c(C(=O)N[C@@H](CC(C)C)C(=O)N[C@@H](C[C@@H]3CCCNC3=O)C(=O)COC(=O)C(C)(C)C#N)cc12" please.
## Result 22

Please find the next compound below.
## Task Tell me measured IC50 for "CC(C)C[C@H](NCC1CCCCC1)C(=O)N[C@H](C#N)C[C@@H]1CCCNC1=O" please.
## Result 97000
